- protocol.notes: Single dose oral pharmacokinetics study in female rats
- Format: in vivo, female Sprague Dawley rats
- condition.details: Sprague-Dawley, rat, plasma; Oral, 5.00 mg/kg, female S.D. rats
measure.name: Tmax (h)
One number for each entry, in h.

Specify Tmax for CC1=C(c2ccc(O)cc2)C(c2ccc(OCCN3CC[C@@H](C)C3)cc2)Oc2cc(O)ccc21 (stereo partly shown) and stop.
2.33

====

- protocol.notes: Single dose oral pharmacokinetics study in female rats
- Assay type: in vivo, female Sprague Dawley rats
- condition.details: Sprague-Dawley, rat, plasma; Oral, 5.00 mg/kg, female S.D. rats
measure.name: MRT last (h)
Numbers only, in h.

Specify MRT last for CC1=C(c2ccc(O)cc2)C(c2ccc(OCCN3CC[C@@H](C)C3)cc2)Oc2cc(O)ccc21 (stereo partly shown) and stop.
25.9
